- target.entity: T1, rat IL-21R expressed on cells (rat)
- T1 construct: whole, on cells; Transiently transfected CHO-PA-Dukx cells
- test.description: cell ELISA on transfected CHO cells, 13 nM IgG
A collection of binders and their measured A450 at 13 nM Ab in cell ELISA

- binder: "AbT (antibody, human IgG1, V domains shown, Human IgG1 triple-mutant (L234A, L235A, G237A); Framework limits derived; also called VHP/VL9; VHPTM/VL9) VH: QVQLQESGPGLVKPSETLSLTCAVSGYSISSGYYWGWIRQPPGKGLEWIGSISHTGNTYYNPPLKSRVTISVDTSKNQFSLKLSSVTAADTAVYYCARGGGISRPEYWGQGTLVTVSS VL: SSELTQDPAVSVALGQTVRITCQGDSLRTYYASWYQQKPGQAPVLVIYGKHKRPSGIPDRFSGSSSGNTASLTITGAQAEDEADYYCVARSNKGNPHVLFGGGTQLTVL"
  A450 at 13 nM Ab in cell ELISA: "0.994 A450"
- binder: "AbH (antibody, human IgG1, V domains shown, Full-length human IgG1 / human lambda, transient, conditioned medium; Framework limits derived; also called VHP/VL19) VH: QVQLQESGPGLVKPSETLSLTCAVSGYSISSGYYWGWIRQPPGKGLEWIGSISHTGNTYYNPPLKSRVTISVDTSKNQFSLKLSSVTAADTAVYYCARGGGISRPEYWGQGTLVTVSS VL: SSELTQDPAVSVALGQTVRITCQGDSLRTYYASWYQQKPGQAPVLVIYGKHKRPSGIPDRFSGSSSGNTASLTITGAQAEDEADYYCVARAVRGNPHVLFGGGTQLTVL"
  A450 at 13 nM Ab in cell ELISA: "1.1 A450"

Next up:
[in] What A450 at 13 nM Ab in cell ELISA value was documented for this binder, AbQ (antibody, human IgG1, V domains shown, Purified form: human IgG1 double-mutant (L234A, G237A); Framework limits derived; also called VH3/VL2; VH3DM/VL2) VH: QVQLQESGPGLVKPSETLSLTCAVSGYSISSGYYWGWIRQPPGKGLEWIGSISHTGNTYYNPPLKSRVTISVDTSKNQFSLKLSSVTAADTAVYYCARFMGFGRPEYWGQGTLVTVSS VL: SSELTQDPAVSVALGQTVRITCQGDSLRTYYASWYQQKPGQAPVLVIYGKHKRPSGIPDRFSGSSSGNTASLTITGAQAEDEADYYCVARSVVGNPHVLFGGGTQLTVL ?
[out] 1.16 A450
